Subject Of Test: Muscarine-Cholinergic Receptor (Hippocampus)
Assay Summary: Muscarine-Cholinergic Receptor Binding, hippocampus
Parameters: species or system rat
Measurement Setup: Hippocampus; read-out: Muscarine Receptor Binding, IC50, Hippocampus
Experimental: The IC50 values were calculated in the manner described by Y. C.
Form field: IC50 (one value per entry).
Answer format: numeric, µM implied, no suffix.

Please indicate IC50 recorded for Cc1ccc(CN2CC(CNC(=O)N3CCN(C)CC3)CC2=O)cc1 (stereo not shown)
26

Please indicate IC50 recorded for O=C(NCC1CC(=O)N(Cc2ccccc2)C1)Nc1ccc(Cl)cc1 (stereo not shown)
93

---

Subject Of Test: Muscarine-Cholinergic Receptor (Hippocampus)
Assay Summary: Muscarine-Cholinergic Receptor Binding, hippocampus
Set-up: species or system rat
Measurement Setup: printed across the Hippocampus and Cortex columns; ineffective up to the stated concentration; read-out: Muscarine Receptor Binding, IC50, Hippocampus and Cortex (ineffective up to)
Form field: IC50 (one value per entry).

COc1ccc(C(=O)N2CCCC2=O)cc1 [Aniracetam, 1-(p-methoxybenzoyl)-pyrrolidin-2-one, reference compound] ... > 100 µM

Please indicate IC50 recorded for NC(=O)CN1CCCC1=O [Piracetam, 1-carbomyl-methyl-pyrrolidin-2-one, reference compound]
> 1000 µM
